Reported pIC50 values follow for various compounds
experimentDescription: Displacement of dansyl-polymyxin from LPS
Type: binding, P. aeruginosa
measurementParameters: read-out: LPS binding affinity: peptide concentration to displace 50% of dansyl-polymyxin B from LPS; Tables 1, 4, 7
pIC50: −log10 of the molar value.
experimentalEndpoint: pIC50

• CC(C)C[C@@H]1NC(=O)[C@@H](CCCCN)NC(=O)[C@H](C(C)C)NC(=O)[C@@H](CCCCN)NC(=O)[C@H](CC(C)C)NC(=O)[C@@H]2CCCN2C(=O)[C@@H](Cc2ccc(O)cc2)NC(=O)[C@H](C(C)C)NC(=O)[C@@H](CCCCN)NC(=O)[C@H](CC(C)C)NC(=O)[C@@H](CCCCN)NC(=O)[C@H](C(C)C)NC(=O)[C@@H]2CCCN2C(=O)[C@@H](Cc2ccc(O)cc2)NC1=O = 3.70
• CC(C)C[C@@H]1NC(=O)[C@H](CCCCN)NC(=O)[C@H](C(C)C)NC(=O)[C@@H]2CCCN2C(=O)[C@@H](Cc2ccc(O)cc2)NC(=O)[C@H](CC(C)C)NC(=O)[C@H](CCCCN)NC(=O)[C@@H](C(C)C)NC(=O)[C@H](CCCCN)NC(=O)[C@H](CC(C)C)NC(=O)[C@@H]2CCCN2C(=O)[C@@H](Cc2ccc(O)cc2)NC(=O)[C@H](C(C)C)NC(=O)[C@H](CCCCN)NC1=O = 4.74
• CC(C)C[C@@H]1NC(=O)[C@H](CCCCN)NC(=O)[C@H](C(C)C)NC(=O)[C@@H]2CCCN2C(=O)[C@@H](Cc2ccc(O)cc2)NC(=O)[C@H](CC(C)C)NC(=O)[C@H](CCCCN)NC(=O)[C@H](C(C)C)NC(=O)[C@@H](CCCCN)NC(=O)[C@H](CC(C)C)NC(=O)[C@@H]2CCCN2C(=O)[C@@H](Cc2ccc(O)cc2)NC(=O)[C@H](C(C)C)NC(=O)[C@H](CCCCN)NC1=O = 4.22
• CC(C)C[C@@H]1NC(=O)[C@H](CCCCN)NC(=O)[C@H](C(C)C)NC(=O)[C@@H]2CCCN2C(=O)[C@@H](Cc2ccc(O)cc2)NC(=O)[C@@H](CC(C)C)NC(=O)[C@H](CCCCN)NC(=O)[C@H](C(C)C)NC(=O)[C@H](CCCCN)NC(=O)[C@H](CC(C)C)NC(=O)[C@@H]2CCCN2C(=O)[C@@H](Cc2ccc(O)cc2)NC(=O)[C@H](C(C)C)NC(=O)[C@H](CCCCN)NC1=O = 4.49
• CC(C)C[C@@H]1NC(=O)[C@H](CCCCN)NC(=O)[C@H](C(C)C)NC(=O)[C@@H]2CCCN2C(=O)[C@@H](Cc2ccc(O)cc2)NC(=O)[C@H](CC(C)C)NC(=O)[C@H](CCCCN)NC(=O)[C@H](C(C)C)NC(=O)[C@H](CCCCN)NC(=O)[C@H](CC(C)C)NC(=O)[C@@H]2CCCN2C(=O)[C@@H](Cc2ccc(O)cc2)NC(=O)[C@H](C(C)C)NC(=O)[C@H](CCCCN)NC1=O = 5.52

====

Documented Hemolytic activity: peptide concentration for 100% lysis of human erythrocytes across a set of compounds
Test system: human erythrocytes
experimentDescription: Hemolytic activity
Assay type: cell-based
experimentalEndpoint: Hemolytic activity: peptide concentration for 100% lysis of human erythrocytes (µg/mL)

- CC(C)C[C@@H]1NC(=O)[C@H](CCCCN)NC(=O)[C@H](C(C)C)NC(=O)[C@H](CCCCN)NC(=O)[C@@H]2CCCN2C(=O)[C@@H](Cc2ccc(O)cc2)NC(=O)[C@H](CCCCN)NC(=O)[C@H](CC(C)C)NC(=O)[C@H](CCCCN)NC(=O)[C@@H](C(C)C)NC(=O)[C@H](CCCCN)NC(=O)[C@@H]2CCCN2C(=O)[C@@H](Cc2ccc(O)cc2)NC(=O)[C@H](CCCCN)NC1=O [GS14invV2]: 800
- CC(C)C[C@@H]1NC(=O)[C@H](CCCCN)NC(=O)[C@H](CC(C)C)NC(=O)[C@@H]2CCCN2C(=O)[C@@H](Cc2ccc(O)cc2)NC(=O)[C@H](CC(C)C)NC(=O)[C@@H](CCCCN)NC(=O)[C@H](CC(C)C)NC(=O)[C@H](CCCCN)NC(=O)[C@H](CC(C)C)NC(=O)[C@@H]2CCCN2C(=O)[C@@H](Cc2ccc(O)cc2)NC(=O)[C@H](CC(C)C)NC(=O)[C@H](CCCCN)NC1=O [V3/L3]: 25
- CC(C)C[C@@H]1NC(=O)[C@H](CCCCN)NC(=O)[C@H](C(C)C)NC(=O)[C@@H]2CCCN2C(=O)[C@@H](Cc2ccccc2)NC(=O)[C@H](CC(C)C)NC(=O)[C@H](CCCCN)NC(=O)[C@H](C(C)C)NC(=O)[C@H](CCCCN)NC(=O)[C@H](CC(C)C)NC(=O)[C@@H]2CCCN2C(=O)[C@@H](Cc2ccccc2)NC(=O)[C@H](C(C)C)NC(=O)[C@@H](CCCCN)NC1=O [Y2/F2]: 40

====

Catalogue of compounds with associated Minimum Inhibitory Concentration (activity)
System: C. xeroses
Assay type: cell-based, Corynebacterium xerosis
experimentalEndpoint: Minimum Inhibitory Concentration (activity)

* CC(C)C[C@@H]1NC(=O)[C@H](CCCCN)NC(=O)[C@H](C(C)C)NC(=O)[C@@H]2CCCN2C(=O)[C@@H](Cc2ccc(O)cc2)NC(=O)[C@H](CC(C)C)NC(=O)[C@H](CCCCN)NC(=O)[C@H](C(C)C)NC(=O)[C@H](CCCCN)NC(=O)[C@H](CC(C)C)NC(=O)[C@H]2CCCN2C(=O)[C@@H](Cc2ccc(O)cc2)NC(=O)[C@H](C(C)C)NC(=O)[C@H](CCCCN)NC1=O | 1 µg/mL
* CC(C)C[C@@H]1NC(=O)[C@@H](CCCCN)NC(=O)[C@H](C(C)C)NC(=O)[C@@H](CCCCN)NC(=O)[C@H](CC(C)C)NC(=O)[C@@H]2CCCN2C(=O)[C@@H](Cc2ccc(O)cc2)NC(=O)[C@H](C(C)C)NC(=O)[C@@H](CCCCN)NC(=O)[C@H](CC(C)C)NC(=O)[C@@H](CCCCN)NC(=O)[C@H](C(C)C)NC(=O)[C@@H]2CCCN2C(=O)[C@@H](Cc2ccc(O)cc2)NC1=O | 25 µg/mL
* CC(C)C[C@@H]1NC(=O)[C@H](CCCCN)NC(=O)[C@H](C(C)C)NC(=O)[C@@H]2CCCN2C(=O)[C@@H](Cc2ccc(O)cc2)NC(=O)[C@H](CC(C)C)NC(=O)[C@H](CCCCN)NC(=O)[C@H](C(C)C)NC(=O)[C@H](CCCCN)NC(=O)[C@H](CC(C)C)NC(=O)[C@@H]2CCCN2C(=O)[C@@H](Cc2ccc(O)cc2)NC(=O)[C@H](C(C)C)NC(=O)[C@@H](CCCCN)NC1=O | 1.5 µg/mL
* CC(C)C[C@@H]1NC(=O)[C@H](CCCCN)NC(=O)[C@H](C(C)C)NC(=O)[C@@H]2CCCN2C(=O)[C@@H](Cc2ccccc2)NC(=O)[C@H](CC(C)C)NC(=O)[C@H](CCCCN)NC(=O)[C@H](C(C)C)NC(=O)[C@H](CCCCN)NC(=O)[C@H](CC(C)C)NC(=O)[C@@H]2CCCN2C(=O)[C@@H](Cc2ccccc2)NC(=O)[C@H](C(C)C)NC(=O)[C@@H](CCCCN)NC1=O | 1.5 µg/mL
* CC(C)C[C@@H]1NC(=O)[C@H](CCCCN)NC(=O)[C@H](C(C)C)NC(=O)[C@H](CCCCN)NC(=O)[C@@H]2CCCN2C(=O)[C@@H](Cc2ccc(O)cc2)NC(=O)[C@H](CCCCN)NC(=O)[C@H](CC(C)C)NC(=O)[C@H](CCCCN)NC(=O)[C@H](C(C)C)NC(=O)[C@@H](CCCCN)NC(=O)[C@@H]2CCCN2C(=O)[C@@H](Cc2ccc(O)cc2)NC(=O)[C@H](CCCCN)NC1=O | 6.2 µg/mL

====

Test system: C. xeroses
Type: cell-based, Corynebacterium xerosis
# binarize Minimum Inhibitory Concentration (activity): threshold 9 µg/mL inclusive, high side YES, low side NO

• CC(C)C[C@@H]1NC(=O)[C@H](CCCCN)NC(=O)[C@H](C(C)C)NC(=O)[C@@H]2CCCN2C(=O)[C@H](Cc2ccc(O)cc2)NC(=O)[C@H](CC(C)C)NC(=O)[C@H](CCCCN)NC(=O)[C@H](C(C)C)NC(=O)[C@H](CCCCN)NC(=O)[C@H](CC(C)C)NC(=O)[C@@H]2CCCN2C(=O)[C@@H](Cc2ccc(O)cc2)NC(=O)[C@H](C(C)C)NC(=O)[C@H](CCCCN)NC1=O [GS14Y13] = NO
• CC(C)[C@@H]1NC(=O)[C@H](CCCCN)NC(=O)[C@H](C)NC(=O)[C@@H]2CCCN2C(=O)[C@@H](Cc2ccc(O)cc2)NC(=O)[C@H](C(C)C)NC(=O)[C@@H](CCCCN)NC(=O)[C@H](C)NC(=O)[C@H](CCCCN)NC(=O)[C@H](C(C)C)NC(=O)[C@@H]2CCCN2C(=O)[C@@H](Cc2ccc(O)cc2)NC(=O)[C@H](C)NC(=O)[C@H](CCCCN)NC1=O [L3/A3] = YES
• CC(C)C[C@@H]1NC(=O)[C@H](CCCCN)NC(=O)[C@H](C(C)C)NC(=O)[C@@H]2CCCN2C(=O)[C@@H](Cc2ccc(O)cc2)NC(=O)[C@H](CC(C)C)NC(=O)[C@H](CCCCN)NC(=O)[C@H](C(C)C)NC(=O)[C@@H](CCCCN)NC(=O)[C@H](CC(C)C)NC(=O)[C@@H]2CCCN2C(=O)[C@@H](Cc2ccc(O)cc2)NC(=O)[C@H](C(C)C)NC(=O)[C@H](CCCCN)NC1=O [GS14K9] = NO
• CC(C)C[C@@H]1NC(=O)[C@H](CCCCN)NC(=O)[C@H](C(C)C)NC(=O)[C@H](CCCCN)NC(=O)[C@H](CC(C)C)NC(=O)[C@@H]2CCCN2C(=O)[C@@H](Cc2ccc(O)cc2)NC(=O)[C@H](C(C)C)NC(=O)[C@H](CCCCN)NC(=O)[C@H](CC(C)C)NC(=O)[C@@H](CCCCN)NC(=O)[C@H](C(C)C)NC(=O)[C@@H]2CCCN2C(=O)[C@@H](Cc2ccc(O)cc2)NC1=O [GS14K2] = NO
